- System: MvaT
- experiment description: PBM 8-mer E-score (mean of HK and ME arrays) (E-score (dimensionless, -0.5 to 0.5)); higher = stronger relative binding preference
Over roughly 33,000 sequences, “E-score (dimensionless, -0.5 to 0.5)” has its median near -0.058; the highest 2% begin near 0.35. The sample holds the highest values, similar sequences and a random draw of the others, so the mix is not that of the screen.
Label met when PBM 8-mer E-score is at or above 0.3; otherwise label not met.

sequence_chain=AGAGGTCA subject_of_test=MvaT group_label="not met"
sequence_chain=AATGTTTG subject_of_test=MvaT group_label="not met"
sequence_chain=GAGTTCAA subject_of_test=MvaT group_label="not met"
sequence_chain=AAATATTC subject_of_test=MvaT group_label=met
sequence_chain=AACTTAAG subject_of_test=MvaT group_label=met
sequence_chain=CATTGTTA subject_of_test=MvaT group_label="not met"
sequence_chain=GCTTATTA subject_of_test=MvaT group_label="not met"
sequence_chain=ACTCGTGA subject_of_test=MvaT group_label="not met"
sequence_chain=GGATACGA subject_of_test=MvaT group_label="not met"
sequence_chain=TAGGAAGA subject_of_test=MvaT group_label="not met"
sequence_chain=ATGCGGTA subject_of_test=MvaT group_label="not met"
sequence_chain=AATACATA subject_of_test=MvaT group_label=met
sequence_chain=CCTACGAG subject_of_test=MvaT group_label="not met"
sequence_chain=ATGTAAAA subject_of_test=MvaT group_label="not met"
sequence_chain=GACTTCAA subject_of_test=MvaT group_label="not met"
sequence_chain=ACCCGTTG subject_of_test=MvaT group_label="not met"
sequence_chain=AATTCTGA subject_of_test=MvaT group_label="not met"
sequence_chain=AGACTAGA subject_of_test=MvaT group_label="not met"
sequence_chain=AATTATTG subject_of_test=MvaT group_label=met
sequence_chain=AACTTAAC subject_of_test=MvaT group_label=met
sequence_chain=CGACTCAA subject_of_test=MvaT group_label="not met"
sequence_chain=ATATAACA subject_of_test=MvaT group_label=met
sequence_chain=AATATTAG subject_of_test=MvaT group_label=met
sequence_chain=ATCTGGAC subject_of_test=MvaT group_label="not met"
sequence_chain=ACTTATTA subject_of_test=MvaT group_label=met
sequence_chain=ATAGCAGC subject_of_test=MvaT group_label="not met"
sequence_chain=CTCGCAGC subject_of_test=MvaT group_label="not met"
sequence_chain=ATGCAGAA subject_of_test=MvaT group_label="not met"
sequence_chain=AGCTGGGG subject_of_test=MvaT group_label="not met"
sequence_chain=AATATTAC subject_of_test=MvaT group_label=met
sequence_chain=CGGTGCTA subject_of_test=MvaT group_label="not met"
sequence_chain=AGATAAAG subject_of_test=MvaT group_label="not met"
sequence_chain=ATTCAACG subject_of_test=MvaT group_label="not met"
sequence_chain=CCCTAAGA subject_of_test=MvaT group_label="not met"
sequence_chain=GAATATGC subject_of_test=MvaT group_label="not met"
sequence_chain=AAAAGAGA subject_of_test=MvaT group_label="not met"
sequence_chain=CATACATA subject_of_test=MvaT group_label="not met"
sequence_chain=ATATAACC subject_of_test=MvaT group_label=met
sequence_chain=CAGGTGTC subject_of_test=MvaT group_label="not met"
sequence_chain=AAGCACAG subject_of_test=MvaT group_label="not met"
sequence_chain=ATCTGCTA subject_of_test=MvaT group_label="not met"
sequence_chain=AGATATTC subject_of_test=MvaT group_label="not met"
sequence_chain=CAGGATGG subject_of_test=MvaT group_label="not met"
sequence_chain=GGCTTTGA subject_of_test=MvaT group_label="not met"
sequence_chain=AACTTAAT subject_of_test=MvaT group_label=met
sequence_chain=AATATTAT subject_of_test=MvaT group_label=met
sequence_chain=ACTTATTG subject_of_test=MvaT group_label="not met"
sequence_chain=ATAAAGTG subject_of_test=MvaT group_label="not met"
sequence_chain=AACATAGT subject_of_test=MvaT group_label="not met"
sequence_chain=CCTATTAG subject_of_test=MvaT group_label="not met"
sequence_chain=GTATGAAA subject_of_test=MvaT group_label="not met"
sequence_chain=ACTGGACG subject_of_test=MvaT group_label="not met"
sequence_chain=AATTATTA subject_of_test=MvaT group_label=met
sequence_chain=AAGTTCAA subject_of_test=MvaT group_label=met
sequence_chain=AAAAAATA subject_of_test=MvaT group_label=met
sequence_chain=CCTATTAC subject_of_test=MvaT group_label="not met"
sequence_chain=AAGATTAT subject_of_test=MvaT group_label="not met"
sequence_chain=GGGCTGAA subject_of_test=MvaT group_label="not met"
sequence_chain=AATATTGT subject_of_test=MvaT group_label=met
sequence_chain=CACTTAAA subject_of_test=MvaT group_label="not met"
sequence_chain=TTATAAAA subject_of_test=MvaT group_label=met
sequence_chain=AACTTCAA subject_of_test=MvaT group_label=met
sequence_chain=CTATAAAG subject_of_test=MvaT group_label="not met"
sequence_chain=GTATAAAC subject_of_test=MvaT group_label=met
sequence_chain=AACTTAAA subject_of_test=MvaT group_label=met
sequence_chain=CAGTAGCA subject_of_test=MvaT group_label="not met"
